# study_system: recombinant HSF1 DNA-binding domain (DBD) (Homo sapiens, UniProt Q00613)
# Sequence (Q00613 15-120): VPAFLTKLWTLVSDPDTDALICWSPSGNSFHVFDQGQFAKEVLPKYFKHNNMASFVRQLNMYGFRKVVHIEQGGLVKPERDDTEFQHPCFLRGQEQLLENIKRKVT
# assay_text: Differential Scanning Fluorimetry (DSF), HSF1 DBD melting temperature
# condition_parameters: Table 1; 5 μM HSF1 DBD, 25PM Compound; positive = stabilizes, negative = destabilizes HSF1
Strictly below 3 °C in ΔTm at 25 µM: rule met. Otherwise: rule not met.

Worked set:
>>> class_assignment("O=c1c(Nc2ccc(F)cc2)c(Nc2ccc(Cl)c([N+](=O)[O-])c2)c1=O")
"rule met"
>>> class_assignment("N=C(N)NC(=O)c1nc(Cl)c(N)nc1N")
"rule met"

Hi there! Is ΔTm at 25 µM for `O=C(Nc1ccc(Cl)c(Cl)c1)Nc1ccc(Cl)c([N+](=O)[O-])c1` below 3 °C, do you know?
rule met

Hi there! Is ΔTm at 25 µM for `COc1ccc(NC(=O)Nc2ccc(C)cc2)cc1` below 3 °C, do you know?
rule met

Hi there! Is ΔTm at 25 µM for `O=C(Nc1cccc([N+](=O)[O-])c1)Nc1ccc(F)cc1C(=O)O` below 3 °C, do you know?
rule not met

Hi there! Is ΔTm at 25 µM for `O=C(Nc1ccccc1)Nc1ccc(OC(F)(F)F)cc1` below 3 °C, do you know?
rule not met

Hi there! Is ΔTm at 25 µM for Cc1ccc(-n2c(SCC(=O)NC(C)c3ccccc3)nnc2-c2ccccc2)cc1 (stereo not shown) below 3 °C, do you know?
rule met

---

# study_system: recombinant HSF1 DNA-binding domain (DBD) (Homo sapiens, UniProt Q00613)
# assay_text: Differential Scanning Fluorimetry (DSF), HSF1 DBD melting temperature
# condition_parameters: Table 1; 5 μM HSF1 DBD, 25PM Compound; positive = stabilizes, negative = destabilizes HSF1
result_type: ΔTm at 25 µM

# annotated cases, reported ΔTm at 25 µM shown
>>> experimental_result("Cc1ccc(NC(=O)Nc2cccc(C(F)(F)F)c2)cc1 [Compound 0058]")
"2.58 °C"
>>> experimental_result("CC(C)c1ccc2c(c1)c(SC(C)(C)C)c(CC(C)(C)C(=O)O)n2Cc1ccc(Cl)cc1 [Compound 0109]")
"-9.02 °C"
>>> experimental_result("O=C(N/N=C/c1cccnc1)c1ccc(=O)[nH]n1 [Compound 0037]")
"-9.74 °C"
>>> experimental_result("O=C(Nc1ccc(F)cc1)Nc1cccc([N+](=O)[O-])c1 [Compound 0076, 1-(4-fluorophenyl)-3-(3-nitrophenyl)urea]")
"-7.23 °C"
>>> experimental_result("O=C(Nc1cc(Cl)cc(Cl)c1)Nc1cc(-c2cccs2)n[nH]1 [Compound 0074]")
"2.61 °C"

Entry under review: O=C(Nc1ccc(F)c(F)c1)Nc1ccc(Cl)c([N+](=O)[O-])c1 [Compound 0034] . Reported ΔTm at 25 µM?
5.7 °C

Entry under review: O=C(Nc1cccc(F)c1)Nc1ccc(Cl)c([N+](=O)[O-])c1 [Compound 0020] . Reported ΔTm at 25 µM?
5.2 °C

Entry under review: O=C(Nc1ccccc1)Nc1ccc(Cl)c(Cl)c1 [Compound 0022, 1-(3,4-dichlorophenyl)-3-phenylurea] . Reported ΔTm at 25 µM?
2.78 °C

---

# reported ΔTm at 25 µM; entries follow
# study_system: recombinant HSF1 DNA-binding domain (DBD) (Homo sapiens, UniProt Q00613)
# assay_text: Differential Scanning Fluorimetry (DSF), HSF1 DBD melting temperature
# condition_parameters: Table 3; 5 μM HSF1 DBD, 25PM Compound; positive = stabilizes, negative = destabilizes HSF1
Number in °C, nothing else.

Entry under review: O=C(Nc1cccc(F)c1)Nc1ccc(Cl)c([N+](=O)[O-])c1 [Compound 020] . Reported ΔTm at 25 µM?
5.2

Entry under review: O=c1c(Nc2ccc(F)cc2)c(Nc2ccc(Cl)c(C(F)(F)F)c2)c1=O [Compound 064] . Reported ΔTm at 25 µM?
2.3

Entry under review: O=C(Nc1ccc(Cl)cc1)Nc1cccc(Cl)c1 [Compound 066] . Reported ΔTm at 25 µM?
3
